The following molecules are listed with their measured melting point values.

(Q) Give recorded melting point. `Cc1nc(-c2cccc(NC(=O)N3CCc4c(cnc5[nH]ncc45)C3)c2)no1`
(A) > 140 °C

(Q) Provide measured melting point value, entry: COc1ccc(Cn2ncc3c4c(cnc32)CC(NC(=O)c2ccccc2)CC4)cc1 (centres unmarked)
(A) > 65 °C

Further cases:
(Q) Look up melting point of Fc1ccc(C2Cc3cnc4[nH]ncc4c3-c3ccccc32)cc1 (centres unmarked) and report it.
(A) 167 to 169 °C

(Q) Give the reported value of melting point for this record: `COc1ccc(Cn2ncc3c4c(cnc32)CN(c2ncnc3[nH]nc(C(=O)c5ccccc5)c23)CC4)cc1`
(A) > 145 °C

====

experimental_endpoint: melting point

Examples with their reported melting point follow.
(Q) Recall and state the measured melting point for O=C(Nc1ccccc1)NC1CCc2c(cnc3[nH]ncc23)C1 (centres unmarked) .
(A) > 216 °C

(Q) Quickly give me recorded melting point for `Cc1nc(-c2cccc(NC(=O)N3CCc4c(cnc5[nH]nc(Br)c45)C3)c2)no1`
(A) > 152 °C

(Q) State its melting point for this molecule: `c1cnc2c(c1)CCc1cnc3[nH]ncc3c1-2`
(A) 263 to 265 °C

(Q) In one line, give reported melting point of the entry CC(C)(C)OC(=O)N1CCN(C(C(=O)N2CCc3c(cnc4[nH]nc(Br)c34)C2)c2ccccc2)CC1 (centres unmarked) .
(A) 159 to 161 °C

More entries:
(Q) Given the molecule Brc1n[nH]c2ncc3c(c12)-c1ccccc1C(c1ccccc1)C3 (centres unmarked) , write its reported melting point.
(A) 176 to 178 °C

====

Where a name gives a salt, the structure may show the parent alone.
experimental_endpoint: melting point

(Q) Kindly indicate its recorded melting point. Item: CN(C)CCNC(=O)c1cccc(NC(=O)N2CCc3c(cnc4[nH]ncc34)C2)c1 (as salt: TFA) [Example 95]
(A) 184 to 196 °C

(Q) Read the entry `N[C@H](C(=O)N1CCc2c(cnc3[nH]ncc23)C1)c1ccccc1.O=C(O)C(F)(F)F` and write its reported melting point.
(A) > 100 °C

(Q) Provide one value: measured melting point of O=C(Nc1ccccc1)N1CCc2cnc3[nH]ncc3c2-c2ccccc21 [Example 319]
(A) > 140 °C

(Q) Supply reported melting point belonging to this compound: Clc1ccc(C2Cc3cnc4[nH]ncc4c3-c3ccccc32)cc1Cl (stereo not drawn) [Example 1]
(A) 168 to 170 °C

(Q) Provide measured melting point value, entry: c1ccc(C2Cc3cnc4[nH]ncc4c3-c3ccccc32)cc1 (stereo not drawn) [Example 2]
(A) 143 to 145 °C

(Q) Indicate its recorded melting point; the compound in question is Cc1nc(-c2cccc(NC(=O)N3CCc4c(cnc5[nH]nc(Br)c45)C3)c2)cs1 [Example 402]
(A) 258 to 261 °C

(Q) Look up melting point of O=C(NCc1ccccc1)c1cccc(NC(=O)N2CCc3c(cnc4[nH]ncc34)C2)c1 (as salt: TFA) [Example 96] and report it.
(A) > 135 °C

(Q) Tell me melting point reported for Clc1ccccc1C1Cc2cnc3[nH]nc(-c4cnn(C5CCNCC5)c4)c3c2-c2ccccc21 (stereo not drawn) (as salt: TFA) [Example 19]
(A) > 225 °C

(Q) Return the recorded melting point value; entry: COc1ccc2c(c1)-c1c(cnc3[nH]ncc13)CC2 [Example 9]
(A) 95 to 97 °C

(Q) Quote melting point reported for O=C(C(NCCO)c1ccccc1)N1CCc2c(cnc3[nH]nc(Br)c23)C1.O=C(O)C(F)(F)F (stereo not drawn) please.
(A) > 115 °C

Next:
(Q) Please list melting point recorded for the compound O=C(c1ccccc1)N1CCc2cnc3[nH]ncc3c2-c2ccccc21 [Example 431]
(A) > 150 °C

(Q) Give the measured melting point for c1ccc2c(c1)NCCc1cnc3[nH]ncc3c1-2 [Example 29]
(A) 215 to 217 °C

(Q) # return recorded melting point for entry CC(C)(C)OC(=O)N1CCC(n2cc(-c3n[nH]c4ncc5c(c34)-c3ccccc3C(c3ccccc3Cl)C5)cn2)CC1 (stereo not drawn) [Example 18]
(A) 139 to 141 °C

(Q) Return reported melting point. Input compound: O=S(=O)(NC1CCc2c(cnc3[nH]ncc23)C1)c1ccccc1 (stereo not drawn) [Example 158]
(A) 228 to 229 °C

(Q) Look up and state reported melting point for O=C(O)C(c1ccccc1)N1CCc2c(cnc3[nH]ncc23)C1 (stereo not drawn) [Example 433]
(A) 237 to 240 °C

(Q) Tell me its melting point given Cc1nc(-c2cccc(NC(=O)N3CCc4c(cnc5[nH]ncc45)C3)c2)cs1 [Example 401] as the entry.
(A) > 155 °C

(Q) Query melting point for Cl.O=C(C(c1ccccc1)N1CCNCC1)N1CCc2c(cnc3[nH]nc(Br)c23)C1 (stereo not drawn)
(A) > 245 °C

(Q) Using known records, supply melting point for COc1ccc(-c2ccccc2)cc1NC(=O)N1CCc2c(cnc3[nH]ncc23)C1 [Example 409]
(A) 148 to 151 °C

====

Counter-ions that a name gives are not always drawn.
Below, each entry is listed with its recorded melting point.

(Q) Check the records and state melting point for c1ccc(CNC2CCc3c(cnc4[nH]ncc34)C2)cc1 (centres unmarked) (as salt: TFA)
(A) > 232 °C

More entries:
(Q) # return recorded melting point for input `Cl.c1ccc(-c2n[nH]c3ncc4c(c23)CCNC4)cc1`
(A) 265 °C (dec.)

(Q) Answer with the recorded melting point of CC(=O)Nc1cccc(-c2n[nH]c3ncc4c(c23)CCNC4)c1 (as salt: trifluoroacetate) [Example 456, 2,2,2-trifluoroacetate] only.
(A) 245 °C (dec.)

(Q) Determine from records and report melting point for O=C(C(NCCc1c[nH]c2ccccc12)c1ccccc1)N1CCc2c(cnc3[nH]ncc23)C1 (centres unmarked) (as salt: TFA) [Example 84, 2,2,2-trifluoroacetate]
(A) > 164 °C

====

Listed here: items and their measured melting point.
Where a name gives a salt, the structure may show the parent alone.

(Q) Give the value of melting point reported for the following: COc1ccc(Cn2ncc3c4c(cnc32)CN(S(=O)(=O)c2ccccc2)CC4)cc1 [Compound 6]
(A) 136 to 138 °C

(Q) Please give the documented melting point of `S=C(Nc1ccccc1)N1CCc2c(cnc3[nH]ncc23)C1`
(A) 200 to 202 °C

(Q) Note melting point for the compound shown: O=C(c1ccccc1)c1c[nH]c2ncnc(N3CCc4c(cnc5[nH]nc(Br)c45)C3)c12 [Example 436]
(A) 300 to 302 °C

(Q) Answer with the recorded melting point of COc1cccc2c1CCc1cnc3[nH]ncc3c1-2 [Example 8] only.
(A) 85 to 89 °C

***
(Q) Report measured melting point; entry is O=[N+]([O-])c1ccc2c(c1)-c1c(cnc3[nH]ncc13)CC2 [Example 14]
(A) 214 to 217 °C

(Q) Identify melting point associated with the compound `O=C(O)C(F)(F)F.c1nc2[nH]ncc2c2c1CNCC2`
(A) 224 to 227 °C

(Q) Answer with the recorded melting point for the compound listed here: NC(=O)c1cccc(-c2n[nH]c3ncc4c(c23)CCNC4)c1 (as salt: trifluoroacetate)
(A) 240 °C (dec.)

(Q) Answer with the recorded melting point for the compound listed here: Clc1ccccc1C1Cc2cnc3[nH]ncc3c2-c2ccccc21 (stereo not drawn) [Example 5]
(A) 88 to 91 °C

(Q) Please report melting point for the following compound: CC(C)(C)OC(=O)N1CCc2c(cnc3[nH]nc(Br)c23)C1 [Example 77]
(A) > 65 °C

====

Target: FGFR2(N549H) (Homo sapiens, UniProt P21802, N549H)
Sequence (P21802 22-821 N549H): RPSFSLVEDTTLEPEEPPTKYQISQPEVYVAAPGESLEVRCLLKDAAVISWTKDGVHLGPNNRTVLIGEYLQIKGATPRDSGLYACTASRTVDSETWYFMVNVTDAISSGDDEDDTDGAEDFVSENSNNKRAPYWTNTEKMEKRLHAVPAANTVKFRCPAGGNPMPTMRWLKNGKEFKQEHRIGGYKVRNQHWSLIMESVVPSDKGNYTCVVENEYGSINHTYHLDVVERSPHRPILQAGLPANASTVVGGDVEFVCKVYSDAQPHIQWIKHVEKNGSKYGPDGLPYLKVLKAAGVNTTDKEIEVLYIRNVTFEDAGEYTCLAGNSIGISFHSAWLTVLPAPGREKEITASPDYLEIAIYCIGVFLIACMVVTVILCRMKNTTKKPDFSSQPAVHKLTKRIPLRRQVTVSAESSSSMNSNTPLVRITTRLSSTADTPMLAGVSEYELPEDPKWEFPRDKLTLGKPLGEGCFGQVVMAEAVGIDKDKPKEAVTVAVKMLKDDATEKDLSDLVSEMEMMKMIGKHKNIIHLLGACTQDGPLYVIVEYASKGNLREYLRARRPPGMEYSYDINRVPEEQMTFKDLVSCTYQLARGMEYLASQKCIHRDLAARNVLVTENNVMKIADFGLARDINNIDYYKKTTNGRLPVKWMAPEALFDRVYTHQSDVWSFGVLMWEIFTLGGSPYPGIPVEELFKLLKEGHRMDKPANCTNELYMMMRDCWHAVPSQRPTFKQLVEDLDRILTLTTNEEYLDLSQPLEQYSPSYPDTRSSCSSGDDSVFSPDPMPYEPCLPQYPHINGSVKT
Assay: fluorescent ELISA assay for inhibitors of FGFR2 kinase
Conditions: 37 μM Pyk2 substrate, 12.5 μM ATP, 0.5 μM FGFR2 enzyme, 60 minutes
experimental_endpoint: IC50 (µM)

1: Cc1cc(C)c2c(c1)-c1c(cnc3[nH]ncc13)CC2
2: Clc1ccc(C2Cc3cnc4[nH]ncc4c3-c3ccccc32)cc1Cl (centres unmarked)
3: Fc1ccc(C2Cc3cnc4[nH]ncc4c3-c3ccccc32)cc1 (centres unmarked)
4: Clc1ccc(C2Cc3cnc4[nH]ncc4c3-c3ccccc32)c(Cl)c1 (centres unmarked)
5: c1ccc(C2Cc3cnc4[nH]ncc4c3-c3ccccc32)cc1 (centres unmarked)
(Q) Arrange the above in rising order of IC50. Answer by writing out the labels in the requested order.
(A) 5, 4, 3, 1, 2
(5: 0.224 µM, 4: 2.51 µM, 3: 4.07 µM, 1: 6.81 µM, 2: 20.8 µM)

====

Where a name gives a salt, the structure may show the parent alone.
experimental_endpoint: melting point

(Q) Please give the documented melting point of `O=C(Nc1ccccc1)N1CCc2c(cnc3[nH]ncc23)C1`
(A) 184 to 186 °C

(Q) Identify the reported melting point for the following entry. `COc1ccc(Cn2ncc3c4c(cnc32)CN(C(=N)N)CC4)cc1`
(A) 255 to 256 °C

(Q) Tell me its melting point given `O=C(Nc1cccc(C(=O)N2CCC(n3c(=O)[nH]c4ccccc43)CC2)c1)N1CCc2c(cnc3[nH]ncc23)C1` as the entry.
(A) > 215 °C

(Q) Annotate the compound `O=C(Nc1ccccc1)N1CCc2c(cnc3[nH]nc(-c4ccccc4)c23)C1` with its measured melting point.
(A) 150 to 170 °C

(Q) Give a short answer stating reported melting point for `COc1ccc(CN2CCc3c(cnc4c3cnn4Cc3ccc(OC)cc3)C2)cc1` .
(A) 105 to 107 °C

(Q) Answer with reported melting point of `O=c1ccc2c([nH]1)CCc1cnc3[nH]ncc3c1-2`
(A) 290 to 296 °C

(Q) Tell me its melting point given `O=C(Cc1ccccc1)N1CCc2c(cnc3[nH]ncc23)C1` as the entry.
(A) 164 to 166 °C

(Q) State, in one line, measured melting point of O=C(Nc1ccccc1)N1CCc2c(cnc3[nH]nc(C4=CCNCC4)c23)C1 (as salt: chloride)
(A) 230 to 231 °C

More entries:
(Q) Provide melting point value for the following compound: `CC(C)(C)OC(=O)N1CCc2c(cnc3[nH]ncc23)C1`
(A) > 70 °C
